target: HIV-1 RRE RNA; assay: HIV-1 RRE RNA competition binding assay (fluorescence polarization, Rev peptide probe); conditions: 100 nM RRE RNA, 10 nM Rev peptide, 25° C., 1 hour; Table 16
measured-quantity: IC50
Reply with a number, then the unit it belongs to.

CN1CCN(c2ccc3nc(-c4ccc(OCc5cn(CCCCCCCCCCn6cc(CCCCc7cn(C[C@H]8OC(OC9C(O)[C@H](N)CC(N)[C@H]9O[C@H]9OC(CN)[C@@H](O)C(O)C9N)C(O)C8O[C@H]8OC(CN)[C@@H](O)C(O)C8N)nn7)nn6)nn5)cc4)[nH]c3c2)CC1 (some centres unmarked) | 15.5 µM

Field: next compound
# input Look up IC50: CN1CCN(c2ccc3nc(-c4ccc(OCCn5cc(CCCCCCc6cn(C[C@H]7OC(OC8C(O)[C@H](N)CC(N)[C@H]8O[C@H]8OC(CN)[C@@H](O)C(O)C8N)C(O)C7O[C@H]7OC(CN)[C@@H](O)C(O)C7N)nn6)nn5)cc4)[nH]c3c2)CC1 (some centres unmarked)
# output 0.0054 µM

* * *

Test system: HIVNL4-3 in MT-2 cells
Test: HIV antigen synthesis in treated cells, immunofluorescence assay (IFA)
Assay type: cell-based
Conditions: Day 2; MT-2 cells; microM: DPA119 24, DPA52 25, DPA53 9, DPA54 17, DPA55 4, DPA56 8, DPA121 25; virus control 15%
Method: Anti-HIV activities can be routinely checked by measuring the percentage of cells positive for HIV antigens using immunofluorescence assay (IFA) and for the release of pelletable reverse transcriptase (RT) into the supernatant. […] Slides were washed in PBS and the percentage of HIV-positive cells was determined by epifluorescence (Robinson et al. J Acquire Immune Defic Syndr 2:33-42, 1989).
measured-quantity: percentage of cells positive for HIV antigens, Day 2 (%)
API: value field is a number in %; no unit string.

# input Item CN1CCN(c2ccc3nc(-c4ccc(OCCn5cc(CCCCc6cn(C[C@H]7OC(OC8C(O)[C@H](N)CC(N)[C@H]8O[C@H]8OC(CN)[C@@H](O)C(O)C8N)C(O)C7O[C@H]7OC(CN)[C@@H](O)C(O)C7N)nn6)nn5)cc4)[nH]c3c2)CC1 (stereo partly shown) has what recorded percentage of cells positive for HIV antigens, Day 2?
# output 15

* * *

# 5% Toxicity microM measurements, system: cells
Report the value in µM with no unit label.

Worked cases, 5% Toxicity microM given:
NCC1O[C@H](OC2C(N)C[C@@H](N)C(O)[C@H]2O[C@@H]2O[C@H](Cn3cc(CCCCCCc4cn(C[C@H]5O[C@@H](O[C@H]6C(O[C@H]7OC(CN)C(O)[C@H](O)C7N)C(N)C[C@@H](N)C6O)[C@@H](O)C5O[C@H]5O[C@@H](CN)C(O)C(O)C5N)nn4)nn3)C(O[C@H]3O[C@@H](CN)C(O)C(O)C3N)[C@@H]2O)C(N)[C@@H](O)C1O (stereo partly drawn) [DPA 56] | 34
CN1CCN(c2ccc3nc(-c4ccc(OCc5cn(CCn6cc(CCCCc7cn(C[C@H]8OC(OC9C(O)[C@H](N)CC(N)[C@H]9O[C@H]9OC(CN)[C@@H](O)C(O)C9N)C(O)C8O[C@H]8OC(CN)[C@@H](O)C(O)C8N)nn7)nn6)nn5)cc4)[nH]c3c2)CC1 (stereo partly drawn) [DPA113] | 176

Please turn your attention to the following entry.
# input // map NCC1O[C@H](OC2C(N)C[C@@H](N)C(O)[C@H]2O[C@@H]2O[C@H](Cn3cc(-c4ccc(-c5cn(C[C@H]6O[C@@H](O[C@H]7C(O[C@H]8OC(CN)C(O)[C@H](O)C8N)C(N)C[C@@H](N)C7O)[C@@H](O)C6O[C@H]6O[C@@H](CN)C(O)C(O)C6N)nn5)cc4)nn3)C(O[C@H]3O[C@@H](CN)C(O)C(O)C3N)[C@@H]2O)C(N)[C@@H](O)C1O (stereo partly drawn) [DPA 53] to recorded 5% Toxicity microM (system: cells)
# output 17

All figures here come from patent US9492554B2.
